target.or.system: wild-type BTK (Homo sapiens)
Sequence (Q06187 whole entry): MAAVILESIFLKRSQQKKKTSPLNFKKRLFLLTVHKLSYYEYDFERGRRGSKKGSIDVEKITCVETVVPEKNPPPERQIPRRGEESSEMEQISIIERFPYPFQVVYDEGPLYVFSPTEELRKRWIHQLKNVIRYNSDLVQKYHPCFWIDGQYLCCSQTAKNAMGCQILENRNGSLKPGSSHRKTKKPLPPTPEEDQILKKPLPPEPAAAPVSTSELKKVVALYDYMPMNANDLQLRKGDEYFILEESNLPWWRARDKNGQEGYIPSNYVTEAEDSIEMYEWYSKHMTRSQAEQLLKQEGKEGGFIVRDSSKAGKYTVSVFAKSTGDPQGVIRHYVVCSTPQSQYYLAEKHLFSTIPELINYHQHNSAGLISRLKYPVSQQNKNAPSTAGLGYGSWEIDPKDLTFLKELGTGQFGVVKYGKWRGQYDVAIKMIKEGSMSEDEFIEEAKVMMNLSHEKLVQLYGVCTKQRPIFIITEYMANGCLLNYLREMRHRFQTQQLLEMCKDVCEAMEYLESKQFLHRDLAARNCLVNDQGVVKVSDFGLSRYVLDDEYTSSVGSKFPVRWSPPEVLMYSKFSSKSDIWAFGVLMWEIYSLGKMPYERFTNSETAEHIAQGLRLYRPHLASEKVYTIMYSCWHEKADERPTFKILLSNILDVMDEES
assay.comment: BTK in vitro activity assay (ADP-Glo, poly-Glu:Tyr phosphorylation, TCEP)
measurement.setup: read-out: Remaining BTK activity (%)
property.measured: remaining activity at 0.1 µM (%)

molecule: COC(=O)c1cnc(SC)nc1N1CCC[C@@H](n2nc(-c3ccc(Oc4ccccc4)cc3)c3c(N)ncnc32)C1
target.or.system: wild-type BTK (Homo sapiens)
unit.name: %
remaining activity at 0.1 µM: 76
//
molecule: Nc1ncnc2c1c(-c1ccc(Oc3ccccc3)cc1)nn2[C@@H]1CCCN(C(=O)c2cncnc2)C1 [Compound 12b]
target.or.system: wild-type BTK (Homo sapiens)
unit.name: %
remaining activity at 0.1 µM: 83
//
molecule: CCCCSc1nccc(C(=O)N2CCC[C@@H](n3nc(-c4ccc(Oc5ccccc5)cc4)c4c(N)ncnc43)C2)n1
target.or.system: wild-type BTK (Homo sapiens)
unit.name: %
remaining activity at 0.1 µM: 82
//
molecule: Cc1nc(S(C)(=O)=O)ncc1N1CCCC(n2nc(-c3ccc(Oc4ccccc4)cc3)c3c(N)ncnc32)C1 (stereo not shown)
target.or.system: wild-type BTK (Homo sapiens)
unit.name: %
remaining activity at 0.1 µM: 80
